# Test system: RAW264.7
# test_summary: Anti-inflammatory activity in mouse RAW264.7 assessed as decrease in LPS-induced IL-1beta mRNA expression at 62.5 uM incubated for 16 hrs by RT-PCR analysis
# Type: functional, cell-based
The source made the active and inactive calls. The calls are words filed in the database; no cut-off is given here.
Classes used: 1.0 = active, 0.0 = inactive

{"molecule": "O=c1[nH]cnc2ncccc12", "class_name": 0.0}
{"molecule": "CCC(C)c1nc2ccccc2c(=O)[nH]1 (centres undefined)", "class_name": 1.0}
{"molecule": "CCCCCCCCc1nc2ccccc2c(=O)[nH]1", "class_name": 1.0}
{"molecule": "CC(C)c1nc2ccccc2c(=O)[nH]1", "class_name": 1.0}

----------
Here, each record is paired with measured Activity data.
# System: RAW264.7
# test_summary: Anti-inflammatory activity in mouse RAW264.7 assessed as decrease in LPS-induced IL-1beta mRNA expression at 62.5 uM incubated for 16 hrs by RT-PCR analysis relative to control
# Format: functional
# Design: scale not given: the % may be the effect or the level left

{"given_smiles": "O=c1[nH]cnc2cc(F)ccc12", "Activity (%)": 10.85}
{"given_smiles": "Oc1nc(C2CCCCC2)nc2ccccc12", "Activity (%)": 75.72}
{"given_smiles": "Oc1ncnc2cc(Cl)ccc12", "Activity (%)": 10.85}
{"given_smiles": "O=c1[nH]cnc2ccc(F)cc12", "Activity (%)": 10.85}

----------
# Test system: RAW264.7
# test_summary: Anti-inflammatory activity in mouse RAW264.7 assessed as LPS-induced COX-2 mRNA expression at 62.5 uM incubated for 16 hrs by RT-PCR analysis relative to control
# Type: functional

{"compound": "Cc1nc2ccccc2c(=O)[nH]1", "inequality_operator": "=", "Activity / %": 60.96}
{"compound": "CC(C)c1nc2ccccc2c(=O)[nH]1", "inequality_operator": "=", "Activity / %": 20.47}
{"compound": "Oc1nc(C2CCCCC2)nc2ccccc12", "inequality_operator": ">", "Activity / %": 80}
{"compound": "CCCCCCCCc1nc2ccccc2c(=O)[nH]1", "inequality_operator": "=", "Activity / %": 11.14}
{"compound": "Cc1cccc(-c2nc(O)c3ccccc3n2)c1", "inequality_operator": "=", "Activity / %": 3.79}
{"compound": "CCC(C)c1nc2ccccc2c(=O)[nH]1 (stereo unspecified)", "inequality_operator": "=", "Activity / %": 0.5}

----------
# test_summary: in vitro
# condition_summary: mouse, raw264.7
# Description: Cytotoxicity against mouse RAW264.7 cells assessed as cell viability at 6.25 uM by MTT assay relative to control

{"given_smiles": "O=c1[nH]cnc2ccccc12", "viability at 6.25 µM": "> 80%"}
